- Tested on: VDR:RXRa (NR concentration 270 nM, RXRa partner concentration 90 nM)
- EXPERIMENTAL_DETAILS: PBM binding z-score (relative to random genomic background probes); higher = stronger binding; sequences stand for … in GC…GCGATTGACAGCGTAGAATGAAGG
Classification field: label 1 = PBM binding z-score at or over 2; label 0 = PBM binding z-score under 2.

Observe how each entry below is paired with its result.
# SEQUENCE_CHAIN, CATEGORY_LABEL
rows = [
    ("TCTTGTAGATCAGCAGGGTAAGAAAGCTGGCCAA", "label 0"),
    ("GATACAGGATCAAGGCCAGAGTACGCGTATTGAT", "label 0"),
    ("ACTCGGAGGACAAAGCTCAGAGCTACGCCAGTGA", "label 0"),
    ("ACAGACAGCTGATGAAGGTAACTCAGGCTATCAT", "label 0"),
    ("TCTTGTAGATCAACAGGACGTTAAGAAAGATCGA", "label 0"),
    ("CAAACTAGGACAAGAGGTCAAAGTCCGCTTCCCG", "label 1"),
    ("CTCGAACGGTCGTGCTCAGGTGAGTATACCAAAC", "label 0"),
    ("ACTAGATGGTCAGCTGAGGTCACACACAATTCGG", "label 1"),
]

Assess whether reported PBM binding z-score for "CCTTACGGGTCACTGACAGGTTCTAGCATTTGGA" sits at 2 or higher.
label 1

Could you tell me if the measured PBM binding z-score of "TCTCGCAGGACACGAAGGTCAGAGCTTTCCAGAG" reaches 2 or more?
label 0

Item "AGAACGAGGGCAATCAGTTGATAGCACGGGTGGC" with PBM binding z-score of 2 or above?
label 1

Is the recorded value of PBM binding z-score equal to or greater than 2 for this sequence? "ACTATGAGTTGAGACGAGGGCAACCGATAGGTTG"
label 0

###

- Tested on: PPARg:RXRa 270nM:90nM, anti-RXR (NR concentration 270 nM, RXRa partner concentration 90 nM)
- EXPERIMENTAL_DETAILS: PBM binding z-score (relative to random genomic background probes); higher = stronger binding; sequences stand for … in GC…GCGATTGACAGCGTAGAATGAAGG
# Lookup of reported PBM binding z-score keyed by entry

Worked examples follow.
# SEQUENCE_CHAIN, READOUT_TYPE, MEASURED_VALUE
rows = [
    ("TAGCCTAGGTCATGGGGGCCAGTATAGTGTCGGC", "PBM binding z-score", 4.26),
    ("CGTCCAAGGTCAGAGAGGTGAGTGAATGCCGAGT", "PBM binding z-score", 2.95),
    ("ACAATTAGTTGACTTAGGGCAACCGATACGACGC", "PBM binding z-score", 0.396),
    ("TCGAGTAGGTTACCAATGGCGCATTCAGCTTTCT", "PBM binding z-score", 1.23),
]

Kindly note the recorded PBM binding z-score for "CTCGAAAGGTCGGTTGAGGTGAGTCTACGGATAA" , which is 1.13

Summary for this sequence, "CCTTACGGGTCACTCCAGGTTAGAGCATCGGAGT" : PBM binding z-score is 3.7

###

- Tested on: FXR:RXRa (NR concentration 270 nM, RXRa partner concentration 90 nM)
- EXPERIMENTAL_DETAILS: PBM binding z-score (relative to random genomic background probes); higher = stronger binding; sequences stand for … in GC…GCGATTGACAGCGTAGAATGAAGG
Reported PBM binding z-score by item:

For orientation, consider the following solved cases.
# SEQUENCE_CHAIN, MEASURED_VALUE
data = [
    ("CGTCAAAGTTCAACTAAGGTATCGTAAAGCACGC", 7.21),
    ("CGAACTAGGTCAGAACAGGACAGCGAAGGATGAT", 1.13),
    ("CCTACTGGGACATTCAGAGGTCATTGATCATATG", 3.08),
]

Next:
// field: PBM binding z-score; key: "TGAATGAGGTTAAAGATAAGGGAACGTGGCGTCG" ; value = 2.65
